TEST DESCRIPTION: Cell Viability - LYMP2-018 (AID 985);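 also: compound exposure lasted 24 hr at 37 °C; nearly all actives have a fitted effect of over 50% in size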
CONDITION LABEL: LYMP2-018 lymphoblastoid cells, viability (qHTS); series mostly up to 92.2 µM
Description: NIH Chemical Genomics Center [NCGC] NIH Molecular Libraries Screening Centers Network [MLSCN] National Institutes of Environmental Health Sciences [NIEHS] National Toxicology Program [NTP] We have developed a 1536-well cell-based assay for quantitative high throughput screening (qHTS) against a number of cell lines to determine in vitro cytotoxicity of small molecules. […] 8. Detection; Luminescence; Viewlux plate reader […]
Inconclusive results are not listed. Activity calls are given as the source filed them. Calls follow the shape of the dose curve; as a rule, active = well fitted cell-killing curve with a large enough effect; inconclusive = small, poorly fitted or top-dose-only effect; inactive = flat fitted curve, though single readings scatter.
Please answer using one outcome listed in 1.0 (active), 0.0 (inactive)

Observe how each entry below is paired with its result.
MOLECULE	CATEGORY LABEL
CCCCCC/C(C=O)=C\c1ccccc1	0.0
C=CC(=O)OCCOCCOC(=O)C=C	1.0

Assay result, entry `O=[N+]([O-])c1cc([N+](=O)[O-])c2ccc(S(=O)(=O)O)cc2c1O` — outcome? 0.0

Assay result, entry `CN(C)c1ccc(C2(c3ccc(N(C)C)cc3)OC(=O)c3cc(N(C)C)ccc32)cc1` — outcome? 0.0

Assay result, entry O=C(/C=C/c1ccc(O)c(O)c1)OC1C[C@](O)(C(=O)O)C[C@@H](O)[C@H]1O (stereo partly specified) — outcome? 0.0

Assay result, entry `O=Cc1ccc(Cl)c(Cl)c1` — outcome? 0.0

###

TEST DESCRIPTION: NFAT Signaling Pathway (AID 444);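 also: carbachol stimulus at about its EC50 of 1 µM final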
CONDITION LABEL: Jurkat NFAT-bla M1, carbachol, beta-lactamase ratio, 5 h; at 17.2 µM (top of the series) unless noted
Results filed as inconclusive are left out. Active and inactive are the calls of the source. Calls follow the shape of the dose curve; as a rule, active = well fitted curve in either direction with a large enough effect (not every such curve was filed as active); inconclusive = small, poorly fitted or top-dose-only effect, or another doubt; inactive = flat fitted curve, though single readings scatter.
Please answer using one outcome listed in true (1) (active), false (0) (inactive)

Observe how each entry below is paired with its result.
COMPOUND	CATEGORY LABEL
Cn1c(=O)c2c(nc(NCc3ccc4c(c3)OCO4)n2Cc2ccccc2)n(C)c1=O	false (0)
Cc1nnc2n(Cc3ccccc3)c(=O)c3c4c(sc3n12)CN(Cc1ccccc1)CC4	false (0)
Brc1cccc(-c2cnc3n2CCCCC3)c1	true (1)
COc1ccc2c(c1OC)C(=O)OC2c1c(O)nc(SC)n(-c2ccccc2)c1=O (stereo not given)	false (0)

Could you now consider this next compound?
Assay result, entry CC(O)CNc1nc2c(c(=O)n(C)c(=O)n2C)n1CCc1ccccc1 (stereo not given) — outcome? false (0)

###

Tested on: N140
TEST DESCRIPTION: qHTS profiling for inhibitors of Plasmodium falciparum proliferation (AID 504749); also: nearly all actives have a fitted effect of over 60% in size
CONDITION LABEL: P. falciparum in erythrocytes, SYBR Green DNA, 72 h; series mostly up to 28.7 µM
Inconclusive results are not listed. The source made the active and inactive calls. The call rests on the fitted dose curve; in most records, active means well fitted inhibition curve with a large enough effect; inconclusive means small, poorly fitted or top-dose-only effect; inactive means flat fitted curve, though single readings scatter.
Please answer using one outcome listed in 1 = active, -1 = inactive

COMPOUND	ASSAY SYSTEM	CATEGORY LABEL
CC(=O)N[C@H]1[C@H](O[C@@H]2c3ccc(c(Cl)c3)Oc3cc4cc(c3O[C@@H]3O[C@H](CO)[C@@H](O)[C@H](O)C3C)Oc3ccc(cc3Cl)C[C@H]3NC(=O)[C@@H](N)c5ccc(O)c(c5)Oc5cc(O)cc(c5)[C@H](NC3=O)C(=O)N[C@H]4C(=O)N[C@H]3C(=O)N[C@@H]2C(=O)N[C@@H](C(=O)O)c2cc(O)cc(O[C@H]4O[C@H](CO)[C@@H](O)C(O)[C@@H]4O)c2-c2cc3ccc2O)O[C@H](CO)[C@@H](O)[C@@H]1O (stereo not given in full)	N140	-1
C/C1=C2/[N-]C(C(CC(N)=O)[C@@]2(C)CCC(=O)NCC(C)OP(=O)([O-])O[C@H]2[C@@H](O)[C@@H](n3cnc4cc(C)c(C)cc43)O[C@@H]2CO)[C@]2(C)N=C(/C(C)=C3N=C(/C=C4N=C1C(CCC(N)=O)C\4(C)C)[C@@H](CCC(N)=O)[C@]\3(C)CC(N)=O)[C@@H](CCC(N)=O)[C@]2(C)CC(N)=O.CC(=O)O.[Co] (stereo not given in full)	N140	-1

Assay result, entry `CC(C)C[C@@H](NC(=O)[C@@H](Cc1ccccc1)NC(=O)c1cnccn1)B(O)O` — outcome? 1

Assay result, entry O=C(O)CC(O)CC(O)/C=C/c1c(C2CC2)nc2ccccc2c1-c1ccc(F)cc1 (stereo not given) — outcome? -1

Assay result, entry `O=C(O)C[CH2][Ge](=[O])[O][Ge](=[O])[CH2]CC(=O)O` — outcome? -1

###

Tested on: CP291
TEST DESCRIPTION: qHTS profiling for inhibitors of Plasmodium falciparum proliferation (AID 504749); also: nearly all actives have a fitted effect of over 60% in size
CONDITION LABEL: P. falciparum in erythrocytes, SYBR Green DNA, 72 h; series mostly up to 28.7 µM
Inconclusive results are not listed. The source made the active and inactive calls. Calls come from the whole dose curve; as a rule, active = well fitted inhibition curve with a large enough effect; inconclusive = small, poorly fitted or top-dose-only effect; inactive = flat fitted curve, though single readings scatter.
Please answer using one outcome listed in true for active, false for inactive

Assay result, entry `CCCC[C@H](O)c1ccccc1` — outcome? false

Assay result, entry C[C@]12CC[C@@H]3c4ccc(O)cc4CC[C@H]3[C@@H]1CCC2OC(=O)CCC1CCCC1 (some centres undefined) — outcome? false

Assay result, entry C[C@]12CC[C@@H]3c4ccc(O)cc4C[C@@H](CCCCCCCCCS(=O)CCCC(F)(F)C(F)(F)F)C3[C@@H]1CC[C@@H]2O (some centres undefined) — outcome? true

Assay result, entry CNC1C(O)C(OC2C(NC(=O)C(O)CN)CC(N)C(OC3OC(CN)C(O)C(O)C3O)C2O)OCC1(C)O (centres undefined) — outcome? false

Assay result, entry `CCCCCCCCCCCCCCCC(=O)OC[C@H](O)[C@H]1OC[C@@H](O)[C@@H]1O` — outcome? false

Assay result, entry CC1(Cn2ccnn2)[C@H](C(=O)O)N2C(=O)C[C@H]2S1(=O)=O (some centres undefined) — outcome? false

Assay result, entry CC1OC(OC2C(O)CC(OC3C(O)CC(OC4CCC5(C)C(CCC6C5CCC5(C)C(C7=CC(=O)OC7)CCC65O)C4)OC3C)OC2C)CC(O)C1O (centres undefined) — outcome? false

Assay result, entry CC(C)(C)C(=O)OCC(=O)C1CCC2C3CCC4=CC(=O)CCC4(C)C3CCC12C (centres undefined) — outcome? false

Assay result, entry `CO/N=C(/C(=O)N[C@@H]1C(=O)N2C(C(=O)O)=C(CSc3nc(C)c(CC(=O)O)s3)CS[C@H]12)c1csc(N)n1` — outcome? false

Assay result, entry COc1cc2c(cc1O)CCN[C@@]21CS[C@H]2c3c(OC(C)=O)c(C)c4c(c3C(COC1=O)N1C2C2c3c(cc(C)c(OC)c3O)CC([C@@H]1O)N2C)OCO4 (some centres undefined) — outcome? true

Assay result, entry `CCN(CC)C(=O)Nc1ccc(OC[C@H](O)CNC(C)(C)C)c(C(C)=O)c1` — outcome? false

Assay result, entry C=CCn1c(=O)n(C2OC(CO)C(O)C2O)c2nc(N)[nH]c(=O)c21 (centres undefined) — outcome? false

Assay result, entry CC12C=CC(=O)C=C1[C@@H](F)CC1C2C(O)CC2(C)C1CC[C@]2(O)C(=O)CO (some centres undefined) — outcome? false

Assay result, entry `CC1=C(c2ccc(NN=C(C#N)C#N)cc2)NNC(=O)C1` — outcome? false

Assay result, entry `CC(=O)NC[C@@H]1CN(c2ccc(N3CCOCC3)c(F)c2)C(=O)O1` — outcome? false

Assay result, entry CC(=O)NC1[C@H](O)C[C@@](O)(C(=O)O)O[C@H]1[C@H](O)[C@H](O)CO (some centres undefined) — outcome? false

Assay result, entry CCCCC(=O)OCC(=O)[C@]1(O)Cc2c(O)c3c(c(O)c2[C@H](OC2CC(NC(=O)C(F)(F)F)C(O)C(C)O2)C1)C(=O)c1c(OC)cccc1C3=O (some centres undefined) — outcome? true

Assay result, entry O=C(NC(CO)C(O)c1ccc([N+](=O)[O-])cc1)C(Cl)Cl (centres undefined) — outcome? true

Assay result, entry OCC1O[C@@H](O[C@@H]2C(CO)OC(O)C(O)C2O)C(O)C(O)C1O (some centres undefined) — outcome? false

Assay result, entry CC1(C(=O)O)CCC2(C)CCC3(C)C(=CC(=O)C4C5(C)CCC(O)C(C)(C)C5CCC43C)C2C1 (centres undefined) — outcome? false

###

Tested on: C2A
TEST DESCRIPTION: qHTS profiling for inhibitors of Plasmodium falciparum proliferation (AID 504749); also: nearly all actives have a fitted effect of over 60% in size
CONDITION LABEL: P. falciparum in erythrocytes, SYBR Green DNA, 72 h; series mostly up to 28.7 µM
Records with an inconclusive call do not appear. Active and inactive are the calls of the source. Calls follow the shape of the dose curve; as a rule, active = well fitted inhibition curve with a large enough effect; inconclusive = small, poorly fitted or top-dose-only effect; inactive = flat fitted curve, though single readings scatter.
Please answer using one outcome listed in true for active, false for inactive

Observe how each entry below is paired with its result.
COMPOUND	ASSAY SYSTEM	CATEGORY LABEL
C/C(=C(/CCO)SS/C(CCO)=C(\C)N(C=O)Cc1cnc(C)nc1N)N(C=O)Cc1cnc(C)nc1N	C2A	false
CC1(C)OC[C@@H]2O[C@@]3(C(=O)O)OC(C)(C)O[C@@H]3[C@@H]2O1	C2A	false
CCCCC(=O)OC1CCC2C3CCc4cc(O)ccc4C3CC[C@]12C (stereo partly specified)	C2A	false
OCC1O[C@H](Oc2ccc(O)cc2)C(O)C(O)C1O (stereo partly specified)	C2A	false

Assay result, entry CC1(Cn2ccnn2)[C@H](C(=O)O)N2C(=O)C[C@H]2S1(=O)=O (stereo partly specified) — outcome? false

Assay result, entry `CCCSS/C(CCO)=C(/C)N(C=O)Cc1cnc(C)nc1N` — outcome? false

Assay result, entry CC(O)C(N)C(=O)O (stereo unspecified) — outcome? false

Assay result, entry C[C@]12CC[C@@H]3c4ccc(O)cc4C[C@@H](CCCCCCCCCS(=O)CCCC(F)(F)C(F)(F)F)C3[C@@H]1CC[C@@H]2O (stereo partly specified) — outcome? true

Assay result, entry CC1CN(c2c(F)c(N)c3c(=O)c(C(=O)O)cn(C4CC4)c3c2F)CC(C)N1 (stereo unspecified) — outcome? false

Assay result, entry `O=C1C(I)=CC(=C(c2cc(I)c(O)c(I)c2)c2ccccc2C(=O)O)C=C1I` — outcome? false

Assay result, entry O=c1ccn(C2OC(COP(=O)(O)OC3C(CO)OC(n4ccc(=O)[nH]c4=O)C3O)C(O)C2O)c(=O)[nH]1 (stereo unspecified) — outcome? false

Assay result, entry `C/C=C\C[C@H](C)[C@H](O)[C@H]1C(=O)N[C@@H](CC)C(=O)N(C)CC(=O)N(C)[C@@H](CC(C)C)C(=O)N[C@@H](C(C)C)C(=O)N(C)[C@@H](CC(C)C)C(=O)N[C@@H](C)C(=O)N[C@@H](C)C(=O)N(C)[C@@H](CC(C)C)C(=O)N(C)[C@@H](CC(C)C)C(=O)N(C)[C@@H](C(C)C)C(=O)N1C` — outcome? true

Assay result, entry `CO[C@H]1C[C@@H]2CC[C@@H](C)[C@@](O)(O2)C(=O)C(=O)N2CCCC[C@H]2C(=O)O[C@H]([C@H](C)C[C@@H]2CC[C@@H](O)[C@H](OC)C2)CC(=O)[C@H](C)/C=C(\C)[C@@H](O)[C@@H](OC)C(=O)[C@H](C)C[C@H](C)/C=C/C=C/C=C/1C` — outcome? true
